Each entry below carries its reported NK92 killing of K562, killing activity (%), 100 nM antibody.
- system tested: T1, human PVRIG expressed on cells (human, UniProt Q6DKI7 41-326)
- T1 sequence (looked up): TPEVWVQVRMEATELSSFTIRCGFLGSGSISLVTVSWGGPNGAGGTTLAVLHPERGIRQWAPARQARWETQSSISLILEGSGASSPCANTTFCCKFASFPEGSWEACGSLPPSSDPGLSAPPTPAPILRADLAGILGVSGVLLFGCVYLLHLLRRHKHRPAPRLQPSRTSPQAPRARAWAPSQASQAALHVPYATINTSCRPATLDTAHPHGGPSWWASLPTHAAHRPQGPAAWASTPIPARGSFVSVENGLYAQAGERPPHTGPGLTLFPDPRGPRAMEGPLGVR
- measurement notes: cell-based or functional assay
Return type: number; implicit unit %.

Solved cases below.
binder	test result
anti-PVRIG antibody 30 (antibody, human IgG4 S228P, F234A L235A, V domains shown, no light chain) VH: HVQLVESGGGSVQAGGSLRLSCEASGYSYSGDCMGWFRRAPGKERDEGVATIDNAGRIKYADSVKGRFTISHGNGKYILYLQMNSLKPEDTDMYYCAAGWTFGGNCSPADWGQGTQVTVSS	13.3
positive antibody Tab5 (antibody, human IgG4 S228P, kappa, F234A L235A, V domains shown, Variable regions of CPA.7.021 (WO2016134333A1) on human IgG4 (S228P/F234A/L235A/K447A) and human kappa constant regions) VH: EVQLVESGGGVVKPGGSLRLSCAASGFTFGTSSMNWVRQAPGKGLEWVAVISFDGTEIHYADSVKGRFTISRDNSKSTVFLQMNSLRPDDTALYYCAKGSGNIYFYSGMDVWGQGTTVTVSS VL: DIQMTQSPSTLSASVGDRVTITCRAGQSISGWLAWFQQKPGKAPNLLIYETSTLESGVPSRFSGSGSGTEYTLTISSLQPDDFATYYCQQYYSYPLTFGQGTKVEIKR	10
humanized anti-PVRIG antibody 20H5 (antibody, human IgG4 S228P, F234A L235A, V domains shown) VH: EVQLVESGGGLVQPGGSLRLSCAASGYTSRTDCMGWFRQAPGKEHEGVAHIDSDGIPRYVDSVKGRFTISQDHAKNSLYLQMNSLRAEDTAVYYCVVGFKFDEDYCAPNDWGQGTMVTVSS	13.3

Next, consider the following binder.
NK92 killing of K562, killing activity (%), 100 nM antibody reading for humanized anti-PVRIG antibody 30H2 (antibody, human IgG4 S228P, F234A L235A, V domains shown) VH: EVQLVESGGGLVQPGGSLRLSCAASGFTFSGDCMGWFRQAPGKGLDEGVATIDNAGRIKYADSVKGRFTISRDNAKNSLYLQMNSLRAEDTAVYYCAAGWTFGGQCSPADWGQGTQVTVSS : 17.7
